# assay text: Example 6 pharmacokinetics assay for PKPD study (plasma, tumor, liver)
# Assay type: in vivo, BALB/c nude mice
# conditions: mouse, liver, po; 10 mg/kg, single dose; 6 h; read-out: Concentration in Liver (mean ± SEM)
value type: concentration at 6 h (ng/g)

CCN(C)S(=O)(=O)Nc1ccc(F)c(Oc2ccc3ncc([C@@H]4COC5(CCN(C6CCC(c7cc8c(cc7F)c(N7CCC(=O)NC7=O)nn8C)CC6)CC5)C4)nc3c2)c1C#N (single isomer, unassigned)    4470
Cn1nc(N2CCC(=O)NC2=O)c2cc(F)c(C3CCC(N4CCC5(CC4)CC(n4cnc6ccc(Oc7c(F)ccc(NS(=O)(=O)C8CCCC8)c7C#N)cc6c4=O)C5)CC3)cc21 (single isomer, unassigned)    460
CCN(C)S(=O)(=O)Nc1ccc(F)c(Oc2ccc3ncn(C4CC5(CCN(C6CCC(c7cc8c(cc7F)c(N7CCC(=O)NC7=O)nn8C)CC6F)CC5)C4)c(=O)c3c2)c1C#N (single isomer, unassigned)    6990

###

# assay text: Example 8 pharmacokinetics assay for PKPD study (plasma, tumor, liver)
# Type: in vivo, BALB/c nude mice
# conditions: mouse, plasma, po, 35 mg/kg, p.o., single dose; 24 h; read-out: Concentration in Plasma (mean ± SEM)
value type: concentration at 24 h (ng/mL)

COC(=O)N[C@@H](C)CNc1nccc(-c2cn(C(C)C)nc2-c2cc(Cl)cc(NS(C)(=O)=O)c2F)n1 [Encorafenib, encorafenib, reference compound]    0.368

###

# assay text: Pharmacokinetics after 21 days dosing in the efficacy study (plasma, tumor and brain concentrations; plasma AUC at steady state), Example 14
# Assay type: in vivo, female BALB/c nude mice
# conditions: mouse, brain, po; 0.75 mg/kg p.o. BID x 21 days; 4 h; mean ± SEM; read-out: Concentration in Brain
value type: concentration at 4 h (ng/g)

CCN(C)S(=O)(=O)Nc1ccc(F)c(Oc2ccc3ncn(C4CC5(CCN(C6CC7(C6)CN(c6cc8c(cc6F)c(N6CCC(=O)NC6=O)nn8C)C7)CC5)C4)c(=O)c3c2)c1C#N (stereo not shown)    10.7

###

# assay text: Pharmacokinetics after 21 days dosing in the efficacy study (plasma, tumor and brain concentrations; plasma AUC at steady state), Example 14
# Assay type: in vivo, female BALB/c nude mice
# conditions: mouse, plasma, po; 1 mg/kg p.o. TID x 21 days; 2 h; mean ± SEM
value type: concentration at 2 h (ng/mL)

CCN(C)S(=O)(=O)Nc1ccc(F)c(Oc2ccc3ncn(C4CC5(CCN(C6CC7(C6)CN(c6cc8c(cc6F)c(N6CCC(=O)NC6=O)nn8C)C7)CC5)C4)c(=O)c3c2)c1C#N (stereo not shown) [Compound 141]    1760

###

# assay text: Pharmacokinetics after 21 days dosing in the efficacy study (plasma, tumor and brain concentrations; plasma AUC at steady state), Example 14
# Format: in vivo, female BALB/c nude mice
# conditions: mouse, brain, po; 3 mg/kg p.o. QD x 21 days; 4 h; mean ± SEM; read-out: Concentration in Brain
value type: concentration at 4 h (ng/g)

CCN(C)S(=O)(=O)Nc1ccc(F)c(Oc2ccc3ncn(C4CC5(CCN(C6CC7(C6)CN(c6cc8c(cc6F)c(N6CCC(=O)NC6=O)nn8C)C7)CC5)C4)c(=O)c3c2)c1C#N (stereo not shown)    22.9
